test: PhoP regulon inhibitors, Salmonella typhi PhoP promoter GFP reporter, confirmatory (AID 1850); settings: fluorescence, 4 h, at 50 µM, active compounds read high;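 also: 0% = induced wells with vehicle and 100% = uninduced wells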
Out of some 310,000 compounds screened, about 1,000 (0.32%) were called active. A selection follows. Potency and affinity values are given separately.
Please go through the items and note down their inhibition.
// return numeric value only (unit: %, not printed)

## Input Return reported inhibition. Input molecule: "CCn1cc(C(=O)NCC(C)C)c(=O)c2cc(F)c(N3CCN(C(=O)c4ccco4)CC3)cc21"
## Output 1.03

## Input Return reported inhibition. Input molecule: "Cc1sc(NC(=O)c2ccccc2)c(C(=O)c2ccccc2)c1C"
## Output -8.66

## Input Return reported inhibition. Input molecule: "CCOc1ccc(S(=O)(=O)Nc2ccccc2C(=O)NCc2ccco2)cc1"
## Output -4.17

## Input Return reported inhibition. Input molecule: "CCn1cc(C(=O)NCc2cccc(F)c2)c(=O)c2cc(F)c(N3CCN(C(=O)c4ccco4)CC3)cc21"
## Output -0.01

## Input Return reported inhibition. Input molecule: "Oc1cccc2cc3cccc(O)c3c(O)c12"
## Output 7.19

## Input Return reported inhibition. Input molecule: "COc1ccc(Nc2cc(Nc3cc(OC)c(OC)c(OC)c3)ncn2)cc1"
## Output 10.6

## Input Return reported inhibition. Input molecule: COc1ccc(C2NCCc3c2[nH]c2ccccc32)cc1CSc1nc2ccccc2s1 (stereo not drawn)
## Output -3.05

## Input Return reported inhibition. Input molecule: CC(CN1CCCCC1)OC(=O)c1ccccc1F (stereo not drawn)
## Output -3.63

## Input Return reported inhibition. Input molecule: "CCOC(=O)c1ccccc1NC(=O)CSc1nnc(C(C)C)n1CC"
## Output 1.44

## Input Return reported inhibition. Input molecule: "CCOC(=O)CCNC(=O)Nc1ccc2nc(C)n(Cc3ccccc3Cl)c(=O)c2c1"
## Output 12

## Input Return reported inhibition. Input molecule: "Cc1ccc(NC(=O)N2CCN(c3ncccc3C(F)(F)F)CC2)cc1"
## Output 1.6

## Input Return reported inhibition. Input molecule: CC1CC(C)CN(S(=O)(=O)c2ccc3c(c2)CC(C)N3C(=O)C2CC2)C1 (stereo not drawn)
## Output -20.4

## Input Return reported inhibition. Input molecule: "CS(=O)(=O)N(CC(=O)N1CCC(C(N)=O)CC1)C1CCCCC1"
## Output -1.33

## Input Return reported inhibition. Input molecule: CCOC(=O)C1CCCN(C(=O)CSc2ccccc2)C1 (stereo not drawn)
## Output 0.88

## Input Return reported inhibition. Input molecule: "CCOC(=O)c1ccc(S(=O)(=O)N2CCN(C(=O)CSc3nc4ccccc4o3)CC2)cc1"
## Output 1.15

## Input Return reported inhibition. Input molecule: "COc1ccc(S(=O)(=O)N2CCN(c3ncccn3)CC2)cc1[N+](=O)[O-]"
## Output -20.4

## Input Return reported inhibition. Input molecule: CCOCCCN(C(=O)Cn1nnc(-c2ccc(C)o2)n1)C(C(=O)NCC1CCCO1)c1ccc(F)cc1 (stereo not drawn)
## Output 5.95

## Input Return reported inhibition. Input molecule: "CC[C@H](C)Cc1cn([C@@H](CCCCN)C(=O)NCCCCCCCCCCC(=O)N2CCNCC2)nn1"
## Output 1.01

## Input Return reported inhibition. Input molecule: Cc1c(C(=O)Nc2c(N)nc(SCC(=O)NCC3CCCO3)[nH]c2=O)cccc1[N+](=O)[O-] (stereo not drawn)
## Output -5.44

## Input Return reported inhibition. Input molecule: "CCOC(=O)c1cn(CC)c2cc3c(cc2c1=O)OCO3"
## Output 2.61

## Input Return reported inhibition. Input molecule: "COc1ccccc1CNCC(=O)Nc1cc(S(=O)(=O)N2CCCCCC2)ccc1Cl"
## Output -6.34

## Input Return reported inhibition. Input molecule: "O=C(CN1CCN(Cc2ccc3c(c2)OCO3)CC1)Nc1ccc(F)cc1"
## Output 2.19

## Input Return reported inhibition. Input molecule: "O=C(NNC(=O)c1nn(-c2ccc(F)cc2)ccc1=O)c1ccc(Cl)cc1"
## Output 1.15

## Input Return reported inhibition. Input molecule: "Nc1cc(=O)n(Cc2ccccc2)c(=O)n1-c1ccc(F)cc1"
## Output -13.9

## Input Return reported inhibition. Input molecule: "CCn1cc(C(=O)NCc2ccccc2)c(=O)c2cc(F)c(N3CCN(C(=O)c4ccco4)CC3)cc21"
## Output -5.58

## Input Return reported inhibition. Input molecule: "COc1ccc([N+](=O)[O-])cc1C(=O)NCCOc1ccc(Cl)cc1"
## Output -0.6

## Input Return reported inhibition. Input molecule: O=C(NC1CCSC1=O)c1cccc(Cl)c1 (stereo not drawn)
## Output 3.01

## Input Return reported inhibition. Input molecule: "N#CCC(=O)Nc1ccc(C(=O)N2CCN(c3ccccn3)CC2)cc1"
## Output 14.2

## Input Return reported inhibition. Input molecule: "O=C(O)c1ccc(S(=O)(=O)Nc2ccc3c(c2)OCCO3)cc1"
## Output -5.88

## Input Return reported inhibition. Input molecule: "CCNC(=O)Cn1c(=O)c(=O)n(Cc2ccccc2)c2ccc(Cl)cc21"
## Output -13.1

## Input Return reported inhibition. Input molecule: "CCCCNC(=O)c1cn(CC)c2cc(N3CCN(C)CC3)c(F)cc2c1=O"
## Output -13.3

## Input Return reported inhibition. Input molecule: "CCOc1ccc(C(=O)Nc2nc(C)c(C(=O)OC)s2)cc1"
## Output -11

## Input Return reported inhibition. Input molecule: "Cc1ccc(S(=O)(=O)NNC(=O)c2cnn(-c3ccccc3)c2C(F)(F)F)cc1"
## Output -1.38

## Input Return reported inhibition. Input molecule: "CCN(CC)CCNC(=O)c1cn(CC)c2cc(N3CCN(C)CC3)c(F)cc2c1=O"
## Output -0.07

## Input Return reported inhibition. Input molecule: "c1ccc(Nc2ccccn2)nc1"
## Output -2.23

## Input Return reported inhibition. Input molecule: "CCn1cc(C(=O)NCCC(=O)OC)c(=O)c2cc3c(cc21)OCO3"
## Output 2.1

## Input Return reported inhibition. Input molecule: "CCn1nc(C(=O)N2CCN(Cc3ccc4c(c3)OCO4)CC2)c2ccccc2c1=O"
## Output -11.3

## Input Return reported inhibition. Input molecule: "CCN(CC)CCNC(=O)c1cn(CC)c2cc(N3CCN(C(=O)c4ccco4)CC3)c(F)cc2c1=O"
## Output 5.87

## Input Return reported inhibition. Input molecule: "CNc1oc(-c2cccs2)nc1S(=O)(=O)c1ccccc1"
## Output -10

## Input Return reported inhibition. Input molecule: "COc1ccc(OC)c2[nH]c(=O)c(CCNS(=O)(=O)c3ccc(C)cc3)cc12"
## Output 7.93

## Input Return reported inhibition. Input molecule: "CCN(CC)S(=O)(=O)c1ccc(/C=C/C(=O)Nc2ccc(Br)cc2F)cc1"
## Output -3.09

## Input Return reported inhibition. Input molecule: "C=CCNC(=O)c1ccc(-c2nc(-c3ccccc3)cs2)cc1"
## Output 0.25

## Input Return reported inhibition. Input molecule: c1ccc(-c2nc(NCC3CCCO3)c3ccccc3n2)nc1 (stereo not drawn)
## Output 2.1
